Source of measurements: paper PMC3124791

Observed pIC50 for BACE-1 (β-secretase) (Homo sapiens, UniProt P56817), reported per entry below.
// pIC50 here means minus log10 of the molar concentration (mol/L)

What does the data say about its pIC50? Entry: O=c1cc(-c2ccc(O)cc2)oc2cc(O)cc(O)c12 [apigenin, 4',5,7-Trihydroxyflavone]
4.47

Another compound to look at: O=c1c(O)c(-c2ccc(O)cc2)oc2cc(O)cc(O)c12
4.56
